Tested on: human liver microsomes, metabolic stability half-life
Experiment: NCATS Human Liver Microsomal (HLM) Stability Profiling
Details: higher = more stable; screened at 1 µM (by protocol)
ENDPOINT: half-life (h)
The reply should contain only the number, in h.

## Input // fetch human liver microsomes, metabolic stability half-life half-life for CCN(CC)CCCN(c1ccccc1)C1Cc2ccccc2C1
## Output 0.192

## Input // fetch human liver microsomes, metabolic stability half-life half-life for CCC(=O)N1CCC(n2nccc2NC(=O)Nc2ccccc2Cl)CC1
## Output 1.49

## Input // fetch human liver microsomes, metabolic stability half-life half-life for COc1ccc(NC(=O)Cn2cc(C(=O)c3cccs3)c3ccccc32)cc1
## Output 0.277

## Input // fetch human liver microsomes, metabolic stability half-life half-life for Cc1ccccc1-n1c([C@H](C)Nc2nc(N)nc3nc[nH]c23)nc2cccc(C)c2c1=O
## Output 1.72

## Input // fetch human liver microsomes, metabolic stability half-life half-life for CCc1cccc2cc(C(O)CNC(C)(C)C)oc12 (stereo unspecified)
## Output 1.61

## Input // fetch human liver microsomes, metabolic stability half-life half-life for CC(=O)c1ccc(N2CCN(c3ncnc4c3cnn4C)CC2)cc1
## Output 1.82

====

Test system: human liver microsomes, metabolic stability half-life
Assay: NCATS Human Liver Microsomal (HLM) Stability Profiling
Settings: higher = more stable; screened at 1 µM (by protocol)
Method: Assay submitter (PI): Dr. Pranav Shah NIH Center for Advancing Translational Sciences Pharmacokinetic issues were the leading cause of drug attrition, accounting for approximately 40% of all cases before the turn of the century. […] The substrate depletion method, also called the in vitro t1/2 method was used to analyze test compounds. […] Sample quantification and analysis was performed using a previously described method (Shah et al., 2016, Siramshetty et al., 2020). […]
So I've got a bunch of molecules here, and I need their half-life values.

## Input Find the recorded half-life belonging to CCOc1ccc(-n2c([C@@H](C)N(Cc3cccnc3)C(=O)Cc3ccc(OC(F)(F)F)cc3)nc3ncccc3c2=O)cc1 and report it.
## Output 8.23 min

## Input Find the recorded half-life belonging to CNc1cccc(CCOc2ccc3c(c2)CN(CC(F)(F)F)C(=O)[C@H](CC(=O)O)C3)n1 and report it.
## Output > 120 min

## Input Find the recorded half-life belonging to Cc1ccc(Nc2nc(C)c(NC(=O)c3ccc(C)cc3)c(Nc3ccc(C)cc3)n2)cc1 and report it.
## Output 20.5 min

## Input Find the recorded half-life belonging to c1ccc(N2CCN(CCc3nn[nH]n3)CC2)cc1 and report it.
## Output > 120 min

## Input Find the recorded half-life belonging to CCCCCOC(=O)Nc1nc(=O)n([C@@H]2O[C@H](C)[C@@H](O)[C@H]2O)cc1F and report it.
## Output > 120 min

## Input Find the recorded half-life belonging to COC(=O)N[C@@H](C)CNc1nccc(-c2cn(C(C)C)nc2-c2cc(Cl)cc(NS(C)(=O)=O)c2F)n1 and report it.
## Output 34.4 min

## Input Find the recorded half-life belonging to C=C1C(=O)O[C@@H]2[C@H]3O[C@]3(C)CC/C=C(\C)CC[C@@H]12 and report it.
## Output > 120 min

## Input Find the recorded half-life belonging to CC(C)c1ccc2oc3nc(N)c(C(=O)O)cc3c(=O)c2c1 and report it.
## Output > 120 min

## Input Find the recorded half-life belonging to COc1ccc(Cn2c(SCc3ccc(C(=O)NC4CCCC4)cc3)nc3ccncc32)cc1 and report it.
## Output 14.5 min

## Input Find the recorded half-life belonging to CCCCNC(=O)NS(=O)(=O)c1ccc(C)cc1 and report it.
## Output 115 min

## Input Find the recorded half-life belonging to Cc1ccc(S(=O)(=O)NC(=O)NN2CCCCCC2)cc1 and report it.
## Output > 120 min

## Input Find the recorded half-life belonging to O=C(N[C@H]1CCN(C(=O)c2cc(C(F)(F)F)cc(C(F)(F)F)c2)[C@H](Cc2ccc(Cl)cc2)C1)c1ccnc2ccccc12 and report it.
## Output 49.2 min

## Input Find the recorded half-life belonging to c1cncc(CN2CCC(n3ncc4c(N5CCOCC5)nc(-c5ccc6[nH]ccc6c5)nc43)CC2)c1 and report it.
## Output 14.9 min

## Input Find the recorded half-life belonging to CC(C)CC(N(C)C)C1(c2ccc(Cl)cc2)CCC1 (stereo not given) and report it.
## Output 3.57 min

## Input Find the recorded half-life belonging to CS(=O)(=O)c1cccc(CNc2nc(Nc3ccc4c(c3)CCC(=O)N4)ncc2C(F)(F)F)c1 and report it.
## Output > 120 min

## Input Find the recorded half-life belonging to CNC(=O)c1cnn(-c2nc(N)c3ncn([C@@H]4O[C@H](CO)[C@@H](O)[C@H]4O)c3n2)c1 and report it.
## Output > 120 min

## Input Find the recorded half-life belonging to Cn1cc(-c2cnc3ccc4ccc(CS(=O)(=O)NCc5ccccn5)cc4c(=O)c3c2)cn1 and report it.
## Output 17.1 min

## Input Find the recorded half-life belonging to CN(C)[S+](=O)([O-])c1ccc([S+](=O)([O-])N(Cc2ccccc2)Cc2ccccn2)cc1 and report it.
## Output 4.28 min

## Input Find the recorded half-life belonging to Cn1c(=O)cc(N2CCCC(N)C2)n(Cc2ccccc2C#N)c1=O (stereo not given) and report it.
## Output > 120 min

## Input Find the recorded half-life belonging to ClCCN1CCCC1 and report it.
## Output 55.7 min

====

Tested on: human liver microsomes, metabolic stability half-life
Assay: NCATS Human Liver Microsomal (HLM) Stability Profiling
Conditions: higher = more stable; screened at 1 µM (by protocol)
So I've got a bunch of molecules here, and I need their log10(half-life) values.
Log scale reminder: half-life in min, then log10 taken.

## Input Find the recorded log10(half-life) belonging to O=c1oc2ccccc2c(O)c1Cc1c(O)c2ccccc2oc1=O and report it.
## Output 1.52

## Input Find the recorded log10(half-life) belonging to CCc1noc(-c2ccc(NCc3ccccc3)c([N+](=O)[O-])c2)n1 and report it.
## Output 0.64

## Input Find the recorded log10(half-life) belonging to CCc1nn(C)c(C(=O)NCc2ccc(Oc3ccc(C)cc3)cc2)c1Cl and report it.
## Output 0.88

## Input Find the recorded log10(half-life) belonging to CCC[C@H](N[C@H]1CCc2cc(F)cc(F)c2C1)C(=O)Nc1cn(C(C)(C)CNCC(C)(C)C)cn1 and report it.
## Output 0.49

## Input Find the recorded log10(half-life) belonging to COCc1c(Cl)ccc2c1CC[C@H]2c1ncc[nH]1 and report it.
## Output 2.06

## Input Find the recorded log10(half-life) belonging to CCCc1ccc(OCC(=O)N2CCN(C(=O)COc3ccc(CCC)cc3OC)CC2)c(OC)c1 and report it.
## Output 0.45

====

Test system: human liver microsomes, metabolic stability half-life
Experiment: NCATS Human Liver Microsomal (HLM) Stability Profiling
Conditions: higher = more stable; screened at 1 µM (by protocol)
Residues, ends and D or L forms follow the SMILES beside them.
Each entry falls into one class according to its half-life; the ranges are I (below 9 min), II (9 min to below 30 min), III (30 min or more)

## Input Hey, which category is CC(=O)NC[C@H]1CN(c2ccc(N3CCN(C(=O)CO)CC3)c(F)c2)C(=O)O1 in, do you know?
## Output III

## Input Hey, which category is Cn1c(=O)c(F)c(Nc2ccc(I)cc2F)c2c(=O)n(CC(O)CO)cnc21 (stereo not given) in, do you know?
## Output III

## Input Hey, which category is COC(=O)[C@H](Cc1ccccc1)NC(=O)[C@@H](N)CC(=O)O (H-Asp-Phe-OMe) in, do you know?
## Output III

## Input Hey, which category is CCn1cc(C(=O)O)c(=O)c2cc(F)c(N3CCN[C@@H](C)C3)c(F)c21 in, do you know?
## Output III

## Input Hey, which category is Fc1ccccc1-c1nc2ccn(Cc3ccc(-c4ccc(C(F)(F)F)cc4C(F)(F)F)nn3)cc-2n1 in, do you know?
## Output III

## Input Hey, which category is N#Cc1ccc(C(=O)Nc2ccc(Cl)c(-c3nc4ncccc4o3)c2)c(F)c1 in, do you know?
## Output II

## Input Hey, which category is CC1=C2[C@H]3OC(=O)[C@@H](C)[C@@H]3CC[C@@]2(C)C=CC1=O in, do you know?
## Output III

## Input Hey, which category is Cc1cc(C(C)Nc2ccccc2)c2nc(N3CCOCC3)cc(=O)n2c1 (stereo not given) in, do you know?
## Output II

## Input Hey, which category is O=C(CC1N=C2c3ccccc3N=C(SCc3ccc(Cl)cc3)N2C1=O)NCCc1ccccc1 (stereo not given) in, do you know?
## Output I

## Input Hey, which category is Cc1ccc(C2=Nc3ccccc3N(CC(=O)Nc3ccccc3F)C(=O)C2)cc1C in, do you know?
## Output I

## Input Hey, which category is CCc1c(O)cc(O)c(C(=O)c2ccc(OCCN3CCOCC3)c(OC)c2)c1CC(=O)N(CCOC)CCOC in, do you know?
## Output III

## Input Hey, which category is c1ccc(C2CC2)c(OCC2=NCCN2)c1 in, do you know?
## Output III

## Input Hey, which category is CC(C)CCC(=O)CC1c2ccccc2C(=O)N1c1ccc2ccc(Cl)nc2n1 (stereo not given) in, do you know?
## Output I

## Input Hey, which category is Cc1cc(C)cc(NC(=O)Nc2cccs2)c1 in, do you know?
## Output I

## Input Hey, which category is CCN1CC(CCN2CCOCC2)C(c2ccccc2)(c2ccccc2)C1=O (stereo not given) in, do you know?
## Output III

## Input Hey, which category is CC(C)Oc1ccc2c(=O)c(-c3ccccc3)coc2c1 in, do you know?
## Output II

## Input Hey, which category is C[C@@H]1C[C@H]2[C@@H]3C[C@H](F)C4=CC(=O)C(Cl)=C[C@]4(C)[C@@]3(F)[C@@H](O)C[C@]2(C)[C@@]1(O)C(=O)CO in, do you know?
## Output III

## Input Hey, which category is Cc1nn(C)c2c1C(c1ccc(C(F)(F)F)cc1)C(C#N)=C(N)O2 (stereo not given) in, do you know?
## Output II

## Input Hey, which category is COc1ccc(CN(CCN(C)C)c2ncccn2)cc1 in, do you know?
## Output I

Data origin: PubChem BioAssay AID1963597
